molecular target: T1, muCDH19(44-139)::huCDH19(142-364)::muCDH19(363-770), Flag-tagged, on 293T cells (human/mouse chimera); test: FACS, transfected 293T
T1 construct: also called Hu EC2-3; C137847
measuredEndpoint: binding result

hu anti-<huCDH19> 4B10 (1-471)(R17G) VH::huIgG1z / 4B10 (1-236)(H45Q,A90T) VL::huKLC (Ab ID 14054) (antibody, V domains shown, Engineered variant of 4B10) VH: QVQLVESGGGVVQPGGSLRLSCAASGFTFSSYDMHWVRQAPGKGLEWVAVISYDGTNEYYADSVKGRFTISRDTSKNTLYLQMNSLRAEDTAVYYCARERYFDWSFDYWGQGTLVSVSS VL: EIVLTQSPGTLSLSPGERATLSCRASQSVSNTYLAWYQQRPGQAPRLLIYGASSRATGIPDRFSGSGSGTDFTLTISSLEPEDFAVYYCQQYSNSWTFGQGTKVEIKR	binds
hu anti-<huCDH19> 2G6 (1-477)(R17G,D61E,D72E,K94N) VH::huIgG1z / 2G6 (1-234)(C42S,D110E) VL::huLLC-C1 (Ab ID 14039) (antibody, V domains shown, Engineered variant of 2G6) VH: QVQLVESGGGVVQPGGSLRLSCAASGFTFSSYGMHWVRQAPGKGLEWVAFIWYEGSNKYYAESVKDRFTISRDNSKNTLYLQMNSLRAEDTAVYYCARRAGIIGTIGYYYGMDVWGQGTTVTVSS VL: SYELTQPPSVSVSPGQTASITCSGDRLGEKYTSWYQQRPGQSPLLVIYQDTKRPSGIPERFSGSNSGNTATLTISGTQAMDEADYYCQAWESSTVVFGGGTKLTVLG	binds
hu anti-<huCDH19> 4B10 VH::huIgG1z / 4B10 VL::huKLC (Ab ID 13590) (antibody, V domains shown) VH: QVQLVESGGGVVQPGRSLRLSCAASGFTFSSYDMHWVRQAPGKGLEWVAVISYDGTNEYYADSVKGRFTISRDTSKNTLYLQMNSLRAEDTAVYYCARERYFDWSFDYWGQGTLVSVSS VL: EIVLTQSPGTLSLSPGERATLSCRASQSVSNTYLAWYHQRPGQAPRLLIYGASSRATGIPDRFSGSGSGTDFALTISSLEPEDFAVYYCQQYSNSWTFGQGTKVEIKR	binds

Data provenance is patent US20140322218A1.
